System: T1, human ferroportin (SLC40A1) fused in frame with the GFP protein, stably expressed in HEK293 cells (human, UniProt Q9NP59 1-571)
T1 sequence (looked up): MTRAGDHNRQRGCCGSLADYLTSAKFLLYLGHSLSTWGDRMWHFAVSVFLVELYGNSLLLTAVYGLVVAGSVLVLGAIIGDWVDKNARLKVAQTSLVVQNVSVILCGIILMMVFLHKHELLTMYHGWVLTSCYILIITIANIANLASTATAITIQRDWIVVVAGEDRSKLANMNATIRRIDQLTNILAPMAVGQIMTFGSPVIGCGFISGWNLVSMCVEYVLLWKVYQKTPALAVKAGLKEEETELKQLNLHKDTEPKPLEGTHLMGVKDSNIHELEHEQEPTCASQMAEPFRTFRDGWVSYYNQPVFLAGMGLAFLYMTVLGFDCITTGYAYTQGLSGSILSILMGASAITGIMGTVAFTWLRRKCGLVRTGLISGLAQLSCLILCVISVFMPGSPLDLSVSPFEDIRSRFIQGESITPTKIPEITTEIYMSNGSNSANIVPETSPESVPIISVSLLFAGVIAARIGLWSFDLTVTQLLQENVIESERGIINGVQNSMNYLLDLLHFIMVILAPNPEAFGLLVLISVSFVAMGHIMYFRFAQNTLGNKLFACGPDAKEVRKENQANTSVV
Experiment notes: cell-based or functional assay
Positions of bridges follow the written chain, without caps; N, C: chain ends. Groups on a side chain read outwards from the residue. *: point of attachment. PEG12 = NCCOCCOCCOCCOCCOCCOCCOCCOCCOCCOCCOCCOCCC(=O)O; Palmitoyl = CCCCCCCCCCCCCCCC(=O)*; Isovaleryl = CC(C)CC(=O)*
Property label: FPN IC50 (nM)
Report the value in nM with no unit label.

Name the recorded FPN IC50 for Isovaleryl-DTHFPCIK([PEG12-Palmitoyl])FC-NH2 (disulfide 6-10; SMILES CCCCCCCCCCCCCCCC(=O)NCCOCCOCCOCCOCCOCCOCCOCCOCCOCCOCCOCCOCCC(=O)NCCCC[C@@H]1NC(=O)[C@H]([C@@H](C)CC)NC(=O)[C@@H](NC(=O)[C@@H]2CCCN2C(=O)[C@H](Cc2ccccc2)NC(=O)[C@H](Cc2c[nH]cn2)NC(=O)[C@@H](NC(=O)[C@H](CC(=O)O)NC(=O)CC(C)C)[C@@H](C)O)CSSC[C@@H](C(N)=O)NC(=O)[C@H](Cc2ccccc2)NC1=O) [Compd ID 222] .
4
